These data points were gathered from ChEMBL document CHEMBL1148788.

ASSAY METHOD TEXT: Displacement of [3H]methyllycaconitine from chimeric alpha-7nAChR N107A mutant/5HT3A receptor in tsA201 cells
Format: cell-based, Homo sapiens
// reported pKi for each item listed
VALUE KIND: pKi

>  <COMPOUND>
CCN1C[C@]2(COC(=O)c3ccccc3N3C(=O)C[C@H](C)C3=O)CC[C@H](OC)[C@@]34[C@@H]5C[C@H]6[C@H](OC)[C@@H]5[C@](O)(C[C@@H]6OC)[C@](O)([C@@H](OC)[C@H]23)[C@@H]14

>  <MEASURED VALUE>
8.42

$$$$
>  <COMPOUND>
C1=CC([N+]23CC[C@@H]4[C@@H]5[C@@H]6[C@@H](OCC=C(C2)[C@@H]6C[C@@H]43)N2c3ccccc3[C@@]34CC[N+]6(C7C=CCCC7)CC7=CCO[C@H]([C@@H]([C@H]23)[C@H]7C[C@@H]46)N5c2ccccc2)CCC1.[Br-].[Br-] (stereo partly specified)

>  <MEASURED VALUE>
6.14

$$$$
>  <COMPOUND>
C[N+](C)(C)Cc1c2n(c3ccccc13)Cc1c(C[N+](C)(C)C)c3ccccc3n1C2.[I-].[I-]

>  <MEASURED VALUE>
4.82

$$$$
>  <COMPOUND>
C[N+]12CC[C@@H]3[C@@H]4/C(=C\N5c6ccccc6[C@@]67CC[N+]8(C)CC9=CCO[C@H]([C@@H]([C@H]56)[C@H]9C[C@@H]78)N4c4ccccc4)[C@@H](C[C@@H]31)/C(=C\CO)C2.[I-].[I-] (stereo partly specified)

>  <MEASURED VALUE>
5.87

$$$$
>  <COMPOUND>
O=[N+]([O-])c1ccc(C[N+]23CC[C@@H]4[C@@H]5[C@@H]6[C@@H](OCC=C(C2)[C@@H]6C[C@@H]43)N2c3ccccc3[C@@]34CC[N+]6(Cc7ccc([N+](=O)[O-])cc7)CC7=CCO[C@H]([C@@H]([C@H]23)[C@H]7C[C@@H]46)N5c2ccccc2)cc1.[Br-].[Br-] (stereo partly specified)

>  <MEASURED VALUE>
7.76

$$$$
>  <COMPOUND>
C[N+]12CC[C@@H]3[C@@H]4[C@@H]5[C@@H](OCC=C(C1)[C@@H]5C[C@@H]32)N1c2ccccc2[C@@]23CC[N+]5(C)CC6=CCO[C@H]([C@@H]([C@H]12)[C@H]6C[C@@H]35)N4c1ccccc1.[I-].[I-] (stereo partly specified)

>  <MEASURED VALUE>
6.48

$$$$

====

MEASUREMENT TARGET: Neuronal acetylcholine receptor subunit alpha-7 (Homo sapiens)
Sequence (P36544 whole entry): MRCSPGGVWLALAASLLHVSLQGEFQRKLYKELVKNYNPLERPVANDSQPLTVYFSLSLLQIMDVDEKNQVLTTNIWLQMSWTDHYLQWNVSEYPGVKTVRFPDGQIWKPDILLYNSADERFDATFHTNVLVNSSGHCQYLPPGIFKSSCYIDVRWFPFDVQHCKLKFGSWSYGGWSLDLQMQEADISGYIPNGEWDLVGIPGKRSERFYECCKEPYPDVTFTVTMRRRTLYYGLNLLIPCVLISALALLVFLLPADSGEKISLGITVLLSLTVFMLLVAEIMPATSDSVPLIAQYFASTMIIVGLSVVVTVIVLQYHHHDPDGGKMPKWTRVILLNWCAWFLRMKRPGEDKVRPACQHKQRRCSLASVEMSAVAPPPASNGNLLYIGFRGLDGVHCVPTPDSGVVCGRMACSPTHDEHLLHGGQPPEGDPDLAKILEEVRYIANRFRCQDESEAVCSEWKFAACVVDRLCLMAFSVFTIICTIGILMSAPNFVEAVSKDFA
ASSAY METHOD TEXT: Displacement of [3H]methyllycaconitine from human alpha-7 in tsA201 cells coexpressed with 5HT3A receptor
Type: cell-based
MEASUREMENT CONDITIONS: read-out: Ki
pKi: −log10 of the molar value.

>  <COMPOUND>
O=[N+]([O-])c1ccc(C[N+]23CC[C@@H]4[C@@H]5[C@@H]6[C@@H](OCC=C(C2)[C@@H]6C[C@@H]43)N2c3ccccc3[C@@]34CC[N+]6(Cc7ccc([N+](=O)[O-])cc7)CC7=CCO[C@H]([C@@H]([C@H]23)[C@H]7C[C@@H]46)N5c2ccccc2)cc1.[Br-].[Br-] (some centres undefined)

>  <pKi>
7.66

$$$$
>  <COMPOUND>
C=CC[N+]12CC[C@@]34c5ccccc5N5/C=C6/[C@H]7C[C@H]8[C@@]9(CC[N@@+]8(CC=C)C/C7=C/CO)c7ccccc7N(/C=C(/[C@@H](C[C@@H]31)/C(=C\CO)C2)[C@H]54)[C@@H]69 (some centres undefined)

>  <pKi>
5.68

$$$$
>  <COMPOUND>
C=CC[N+]12CC[C@@H]3[C@@H]4[C@@H]5[C@@H](OCC=C(C1)[C@@H]5C[C@@H]32)N1c2ccccc2[C@@]23CCN5CC6=CCO[C@H]([C@@H]([C@H]12)[C@H]6C[C@H]53)N4c1ccccc1.[Br-] (some centres undefined)

>  <pKi>
7.15

$$$$
>  <COMPOUND>
COc1ccc(C[N+]23CC[C@@H]4[C@@H]5/C(=C\N6c7ccccc7[C@@]78CC[N+]9(Cc%10ccc(OC)c(OC)c%10)CC%10=CCO[C@H]([C@@H]([C@H]67)[C@H]%10C[C@@H]89)N5c5ccccc5)[C@@H](C[C@@H]42)/C(=C\CO)C3)cc1OC.[Cl-].[Cl-] (some centres undefined)

>  <pKi>
6.57

$$$$
>  <COMPOUND>
C1=C2CN3CC[C@@H]4[C@@H]5[C@H]([C@@H](OC1)N1c6ccccc6[C@@]67CCN8CC9=CCO[C@H]([C@@H]([C@H]16)[C@H]9C[C@H]87)N5c1ccccc1)[C@H]2C[C@@H]43

>  <pKi>
5.96

$$$$
>  <COMPOUND>
COc1ccc(C[N+]23CC[C@@H]4[C@@H]5[C@@H]6[C@@H](OCC=C(C2)[C@@H]6C[C@@H]43)N2c3ccccc3[C@@]34CC[N+]6(Cc7ccc(OC)c(OC)c7)CC7=CCO[C@H]([C@@H]([C@H]23)[C@H]7C[C@@H]46)N5c2ccccc2)cc1OC.[Cl-].[Cl-] (some centres undefined)

>  <pKi>
6.89

$$$$
>  <COMPOUND>
C[N+](C)(Cc1ccc([N+](=O)[O-])cc1)Cc1c2n(c3ccccc13)Cc1c(C[N+](C)(C)Cc3ccc([N+](=O)[O-])cc3)c3ccccc3n1C2.[Br-].[Br-]

>  <pKi>
5.68

$$$$
>  <COMPOUND>
C[N+](C)(C)Cc1c2n(c3ccccc13)Cc1c(C[N+](C)(C)C)c3ccccc3n1C2.[I-].[I-]

>  <pKi>
5.62

$$$$
>  <COMPOUND>
C=CC[N+](C)(C)Cc1c2n(c3ccccc13)Cc1c(C[N+](C)(C)CC=C)c3ccccc3n1C2.[Br-].[Br-]

>  <pKi>
5.36

$$$$

====

ASSAY METHOD TEXT: Displacement of [3H]methyllycaconitine from chimeric alpha-7nAChR K145R mutant /5HT3A receptor in tsA201 cells
Format: cell-based, Homo sapiens
Items are presented alongside their recorded pKi.

>  <COMPOUND>
C[N+](C)(C)Cc1c2n(c3ccccc13)Cc1c(C[N+](C)(C)C)c3ccccc3n1C2.[I-].[I-]

>  <pKi>
5.28

$$$$
>  <COMPOUND>
C[N+]12CC[C@@H]3[C@@H]4/C(=C\N5c6ccccc6[C@@]67CC[N+]8(C)CC9=CCO[C@H]([C@@H]([C@H]56)[C@H]9C[C@@H]78)N4c4ccccc4)[C@@H](C[C@@H]31)/C(=C\CO)C2.[I-].[I-] (stereo partly specified)

>  <pKi>
6.13

$$$$
>  <COMPOUND>
C[N+]12CC[C@@H]3[C@@H]4[C@@H]5[C@@H](OCC=C(C1)[C@@H]5C[C@@H]32)N1c2ccccc2[C@@]23CC[N+]5(C)CC6=CCO[C@H]([C@@H]([C@H]12)[C@H]6C[C@@H]35)N4c1ccccc1.[I-].[I-] (stereo partly specified)

>  <pKi>
6.37

$$$$
>  <COMPOUND>
O=[N+]([O-])c1ccc(C[N+]23CC[C@@H]4[C@@H]5[C@@H]6[C@@H](OCC=C(C2)[C@@H]6C[C@@H]43)N2c3ccccc3[C@@]34CC[N+]6(Cc7ccc([N+](=O)[O-])cc7)CC7=CCO[C@H]([C@@H]([C@H]23)[C@H]7C[C@@H]46)N5c2ccccc2)cc1.[Br-].[Br-] (stereo partly specified)

>  <pKi>
7.24

$$$$
>  <COMPOUND>
C1=CC([N+]23CC[C@@H]4[C@@H]5[C@@H]6[C@@H](OCC=C(C2)[C@@H]6C[C@@H]43)N2c3ccccc3[C@@]34CC[N+]6(C7C=CCCC7)CC7=CCO[C@H]([C@@H]([C@H]23)[C@H]7C[C@@H]46)N5c2ccccc2)CCC1.[Br-].[Br-] (stereo partly specified)

>  <pKi>
6.18

$$$$
>  <COMPOUND>
CCN1C[C@]2(COC(=O)c3ccccc3N3C(=O)C[C@H](C)C3=O)CC[C@H](OC)[C@@]34[C@@H]5C[C@H]6[C@H](OC)[C@@H]5[C@](O)(C[C@@H]6OC)[C@](O)([C@@H](OC)[C@H]23)[C@@H]14

>  <pKi>
8.37

$$$$

====

MEASUREMENT TARGET: Neuronal acetylcholine receptor; alpha3/beta4 (Rattus norvegicus, UniProt P04757+P12392)
Sequence (P04757 whole entry): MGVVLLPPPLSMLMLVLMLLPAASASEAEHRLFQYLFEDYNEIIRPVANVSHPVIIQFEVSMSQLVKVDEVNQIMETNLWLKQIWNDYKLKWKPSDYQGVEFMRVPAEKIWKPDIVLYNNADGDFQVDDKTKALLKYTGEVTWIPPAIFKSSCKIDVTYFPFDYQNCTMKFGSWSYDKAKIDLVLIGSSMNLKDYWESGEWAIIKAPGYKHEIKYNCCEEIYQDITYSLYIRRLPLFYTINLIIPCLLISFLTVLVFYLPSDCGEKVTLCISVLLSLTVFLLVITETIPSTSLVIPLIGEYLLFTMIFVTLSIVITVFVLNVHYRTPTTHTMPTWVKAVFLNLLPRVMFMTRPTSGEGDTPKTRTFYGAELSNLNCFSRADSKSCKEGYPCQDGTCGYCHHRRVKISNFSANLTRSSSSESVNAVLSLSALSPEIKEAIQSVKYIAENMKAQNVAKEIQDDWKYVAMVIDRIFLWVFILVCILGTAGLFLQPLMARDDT
Sequence (P12392 whole entry): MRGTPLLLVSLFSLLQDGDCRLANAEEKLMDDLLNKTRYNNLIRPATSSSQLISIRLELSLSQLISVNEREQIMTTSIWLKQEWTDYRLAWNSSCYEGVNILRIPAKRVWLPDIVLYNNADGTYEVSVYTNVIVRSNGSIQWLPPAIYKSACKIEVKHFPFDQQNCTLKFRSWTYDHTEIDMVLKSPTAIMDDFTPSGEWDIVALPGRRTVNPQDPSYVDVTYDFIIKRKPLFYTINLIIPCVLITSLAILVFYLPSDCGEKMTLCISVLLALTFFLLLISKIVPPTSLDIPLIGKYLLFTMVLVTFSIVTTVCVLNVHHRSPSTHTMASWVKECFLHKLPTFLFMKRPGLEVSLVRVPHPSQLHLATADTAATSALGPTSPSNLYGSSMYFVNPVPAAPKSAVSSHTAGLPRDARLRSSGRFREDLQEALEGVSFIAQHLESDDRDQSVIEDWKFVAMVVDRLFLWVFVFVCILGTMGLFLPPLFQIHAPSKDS
ASSAY METHOD TEXT: Antagonist activity at rat alpha3beta4 nAChR expressed in HEK293 cells by FMP assay
Type: functional, cell-based, Homo sapiens
MEASUREMENT CONDITIONS: hek293
Below, each of the compounds is paired with its reported pIC50 value.

>  <COMPOUND>
COc1ccc(C[N+]23CC[C@@H]4[C@@H]5[C@@H]6[C@@H](OCC=C(C2)[C@@H]6C[C@@H]43)N2c3ccccc3[C@@]34CC[N+]6(Cc7ccc(OC)c(OC)c7)CC7=CCO[C@H]([C@@H]([C@H]23)[C@H]7C[C@@H]46)N5c2ccccc2)cc1OC.[Cl-].[Cl-] (stereo partly drawn)

>  <pIC50>
< 4

$$$$
>  <COMPOUND>
C=CC[N+](C)(C)Cc1c2n(c3ccccc13)Cc1c(C[N+](C)(C)CC=C)c3ccccc3n1C2.[Br-].[Br-]

>  <pIC50>
< 4

$$$$
>  <COMPOUND>
Brc1ccc(C[N+]23CC[C@@H]4[C@@H]5[C@@H]6[C@@H](OCC=C(C2)[C@@H]6C[C@@H]43)N2c3ccccc3[C@@]34CC[N+]6(Cc7ccc(Br)cc7)CC7=CCO[C@H]([C@@H]([C@H]23)[C@H]7C[C@@H]46)N5c2ccccc2)cc1.[Br-].[Br-] (stereo partly drawn)

>  <pIC50>
< 4

$$$$
